Reference for the values: patent US20260001875A1

Listed below: DC50 values for each entry.
target-of-assay: LRRK2^WT (Mus musculus, UniProt Q5S006)
Construct: endogenous in cells; host or cells: primary wild-type mouse embryonic fibroblasts (MEFs)
Sequence (Q5S006 whole entry): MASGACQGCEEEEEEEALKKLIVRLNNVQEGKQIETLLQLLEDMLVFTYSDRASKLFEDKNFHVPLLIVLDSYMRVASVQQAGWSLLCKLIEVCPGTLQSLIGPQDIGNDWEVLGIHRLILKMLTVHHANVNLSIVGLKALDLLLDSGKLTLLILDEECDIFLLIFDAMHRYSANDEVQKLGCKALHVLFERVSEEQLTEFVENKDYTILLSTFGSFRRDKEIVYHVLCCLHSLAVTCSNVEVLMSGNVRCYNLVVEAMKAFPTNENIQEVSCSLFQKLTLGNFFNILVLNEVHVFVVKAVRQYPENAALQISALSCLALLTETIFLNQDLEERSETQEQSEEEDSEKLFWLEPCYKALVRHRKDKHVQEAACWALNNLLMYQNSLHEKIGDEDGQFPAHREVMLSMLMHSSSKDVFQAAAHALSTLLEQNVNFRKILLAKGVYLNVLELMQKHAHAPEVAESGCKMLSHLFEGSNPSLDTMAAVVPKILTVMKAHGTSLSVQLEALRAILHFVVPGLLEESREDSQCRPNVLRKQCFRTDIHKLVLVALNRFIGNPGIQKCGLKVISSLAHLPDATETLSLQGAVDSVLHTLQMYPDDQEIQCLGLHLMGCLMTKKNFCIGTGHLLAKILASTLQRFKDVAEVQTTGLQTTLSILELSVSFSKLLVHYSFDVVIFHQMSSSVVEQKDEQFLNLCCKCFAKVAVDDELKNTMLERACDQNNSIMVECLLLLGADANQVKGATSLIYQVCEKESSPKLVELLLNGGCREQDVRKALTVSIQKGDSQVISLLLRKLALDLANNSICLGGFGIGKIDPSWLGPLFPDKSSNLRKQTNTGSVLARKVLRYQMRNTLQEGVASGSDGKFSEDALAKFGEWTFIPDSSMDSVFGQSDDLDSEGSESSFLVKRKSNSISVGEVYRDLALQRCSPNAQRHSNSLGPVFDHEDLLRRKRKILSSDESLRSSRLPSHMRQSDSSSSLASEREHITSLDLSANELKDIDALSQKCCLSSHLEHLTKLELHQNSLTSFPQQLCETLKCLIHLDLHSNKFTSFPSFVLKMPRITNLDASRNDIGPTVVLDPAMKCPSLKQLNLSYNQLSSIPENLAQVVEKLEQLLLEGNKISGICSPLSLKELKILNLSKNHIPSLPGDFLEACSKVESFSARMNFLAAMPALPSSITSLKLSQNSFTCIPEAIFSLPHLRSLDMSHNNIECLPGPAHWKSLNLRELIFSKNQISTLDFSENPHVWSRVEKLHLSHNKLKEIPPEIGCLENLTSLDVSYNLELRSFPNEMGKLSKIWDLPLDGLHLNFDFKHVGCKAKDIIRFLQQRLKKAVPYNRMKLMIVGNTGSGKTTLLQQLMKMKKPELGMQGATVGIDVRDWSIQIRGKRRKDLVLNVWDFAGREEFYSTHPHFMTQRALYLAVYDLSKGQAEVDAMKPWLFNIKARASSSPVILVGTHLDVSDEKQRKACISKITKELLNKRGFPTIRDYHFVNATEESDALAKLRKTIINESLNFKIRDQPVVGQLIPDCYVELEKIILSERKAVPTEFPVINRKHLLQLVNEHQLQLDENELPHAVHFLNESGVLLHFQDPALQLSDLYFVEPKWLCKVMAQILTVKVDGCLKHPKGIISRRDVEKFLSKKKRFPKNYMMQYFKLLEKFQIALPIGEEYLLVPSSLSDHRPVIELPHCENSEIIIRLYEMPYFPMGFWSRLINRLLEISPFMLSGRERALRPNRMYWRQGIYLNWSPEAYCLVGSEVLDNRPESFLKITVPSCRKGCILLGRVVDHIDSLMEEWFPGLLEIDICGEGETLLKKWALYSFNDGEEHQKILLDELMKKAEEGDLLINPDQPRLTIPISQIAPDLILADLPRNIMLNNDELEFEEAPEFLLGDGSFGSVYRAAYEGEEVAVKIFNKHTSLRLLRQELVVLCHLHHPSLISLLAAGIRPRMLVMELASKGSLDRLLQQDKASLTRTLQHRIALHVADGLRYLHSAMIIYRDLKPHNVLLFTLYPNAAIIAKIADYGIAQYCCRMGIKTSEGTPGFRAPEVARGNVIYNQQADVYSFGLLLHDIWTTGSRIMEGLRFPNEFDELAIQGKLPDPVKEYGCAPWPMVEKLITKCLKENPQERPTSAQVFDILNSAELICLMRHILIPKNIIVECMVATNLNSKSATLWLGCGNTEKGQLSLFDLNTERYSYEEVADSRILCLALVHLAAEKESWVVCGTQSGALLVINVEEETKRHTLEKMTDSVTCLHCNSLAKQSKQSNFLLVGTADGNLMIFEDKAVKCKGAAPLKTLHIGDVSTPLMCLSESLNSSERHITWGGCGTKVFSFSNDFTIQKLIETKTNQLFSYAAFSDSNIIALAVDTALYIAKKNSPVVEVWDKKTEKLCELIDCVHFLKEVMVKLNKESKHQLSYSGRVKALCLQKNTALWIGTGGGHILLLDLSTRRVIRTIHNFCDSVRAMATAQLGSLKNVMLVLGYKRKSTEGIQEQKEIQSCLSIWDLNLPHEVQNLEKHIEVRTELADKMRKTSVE
assay-remarks: Western blot LRRK2 degradation in WT MEFs
Format: cell-based
study-conditions: dose response, 4 h treatment
Write down the numeric answer in nM and omit the unit.

Exercise: Which DC50 is reported with LRRK2^WT (Mus musculus, UniProt Q5S006) for this entry: CNc1nc(Nc2ccc(OC3CCN(C[C@H]4CC[C@H](CSC(C)(C)C(NC(=O)C5(F)CC5)C(=O)N5C[C@H](O)C[C@H]5C(=O)NCc5ccc(-c6scnc6C)cc5)CC4)CC3)cc2OC)ncc1Cl (stereo partly drawn) [XL02017] ?
Solution: 44
